Attribution: PubChem BioAssay (NCATS)

# tested_system: Aldehyde dehydrogenase 1A1 (Homo sapiens)
# measurement_description: qHTS for Inhibitors of the Aldehyde Dehydrogenase Family (ALDH1A1) Confirmatory screens (AID 2061316); also: nearly all actives have a fitted effect of over 65% in size
# study_conditions: ALDH inhibition qHTS; series mostly up to 47.3 µM
Inconclusive results are not listed. Activity calls are given as the source filed them. Calls follow the shape of the dose curve; as a rule, active = well fitted inhibition curve with a large enough effect; inconclusive = small, poorly fitted or top-dose-only effect; inactive = no such curve, though single readings can be large or run the other way.
Respond using exactly one of the listed classes: active, inactive

Could you kindly confirm the outcome this assay logged for Brc1c(NC2=NCCN2)ccc2nccnc12 ?
active

Just curious, what result did Cc1[nH]c(/C=C2\C(=O)Nc3cc(-c4ccccc4)ccc32)c(C)c1CCC(=O)O get here?
inactive

Hey, what did the test say about Fc1ccc(-c2nc(C3CCNCC3)sc2-c2ccnc(NC3CC3)n2)cc1 ?
inactive

Record lookup: outcome of this test for O=C1NC(=O)/C(=C/c2cccn2-c2ccc(P(O)O)cc2)N1 ?
inactive

Any idea what this test logged for Cc1cccc(C)c1-n1c(SCC(=O)NCCCCCC(=O)O)nnc1-c1cccc([S+](=O)([O-])N2CCCC2)c1 ?
inactive

Lab log entry: COc1ccc(C2=Nn3c(nnc3-c3cc(OC)ccc3OC)SC2)c(OC)c1 — outcome as called in the assay?
active

# fetch the recorded call for NC(=O)C1CCN(c2ncc(-c3ccc4c(c3)OCCO4)s2)CC1 here
active

What is the recorded call for this molecule in the test? CN(C)c1cc2c(Nc3ccc4c(cnn4Cc4ccccc4)c3)ncnc2cn1
inactive

Called result for O=C(/C=C/c1ccc([N+](=O)[O-])o1)Nc1cccc([S+](=O)([O-])Nc2ccccc2F)c1
active
